Source: patent US20140051645A1

We begin with a simple list: items and their reported Kd.
Target: T1, murine CTLA4-Fc (R&D Systems) (mouse, UniProt P09793 36-162, limits assumed)
T1 construct: Bought fusion protein; also called mouse CTLA4; not shown: It was captured by an anti-human IgG-Fc antibody
Assay: SPR, Biacore T100, 25 C; CTLA4-Fc captured on anti-human IgG-Fc, mutein as analyte; 1:1 Langmuir fit
measurement_kind: Kd

INSERT INTO assay_data (binder, recorded_measurement) VALUES
  ('hNGALM2 (designed binder) QDSTSDLIPAPPLSKVPLQQNFQDNQFHGKWYVVGLAGNRLLRDDQHPMDMYATIYELKGDKSYNVTSVISSHKKCLYPIATFVPGSQPGEFTLGNIKSYGDKWSYLVRVVSTDYNQYAVVFFKHADTNYESFSITIYGRTKELASELKENFIRFSKSLGLPENHIVFPVPIDQCIDGSAWSHPQFEK', '3.05 nM'),
  ('hNGALM6 (designed binder) QDSTSDLIPAPPLSKVPLQQNFQDNQFHGKWYVVGLAGNRILRSDQHPMPMYATIYELKGDKSYNVTSVISSHKKCLYSIATFVPGSQPGEFTLGNIKSYGDKESYLVRVVSTDYNQYAVVFFKYASDNDESFSITIYGRTKELASELKENFIRFSKSLGLPENHIVFPVPIDQCIDGSAWSHPQFEK', '66.1 nM'),
  ('hNGALM3 (designed binder) QDSTSDLIPAPPLSKVPLQQNFQDNQFHGKWYVVGLAGNRILRQDQHPMLMYATIYELKGDKSYNVTSVISSHKKCLYPIATFVPGSQPGEFTLGNIKSYGDKVSYLVRVVSTDYNQYAVVFFKHADTNYESFSITIYGRTKELASELKENFIRFSKSLGLPENHIVFPVPIDQCIDGSAWSHPQFEK', '0.672 nM');
